Values compiled from patent US10590086B2.

Overview of reported IC50 across a group of compounds:
testTarget: UniProt:P48775
assayProcedure: A172 kynurenine cell-based assay
Set-up: This assay utilised cancer cells which expressed either TDO or IDO; endogenous in cells; host or cells: A172 (human glioblastoma)
runParameters: A172 human glioblastoma cells, 48 hours, 500 μM L-tryptophan; read-out: A172 Kynurenine cell based assay pIC50 (converted)
measureName: IC50

>>> reportedresult("CN(c1cc(C2CCN(S(C)(=O)=O)CC2)c2cn[nH]c2c1)S(C)(=O)=O")
"3.24 to 31.6 µM"
>>> reportedresult("O=C(C1COC1)N1CCN(c2cc(Cl)cc3[nH]ncc23)CC1")
"< 3.16 µM"
>>> reportedresult("CC(=O)N1CCN(c2cc(Cl)cc3[nH]ncc23)CC1(C)C")
"< 3.16 µM"
>>> reportedresult("O=S(=O)(C1CCCC1)N1CCN(c2cccc3[nH]ncc23)CC1")
"3.24 to 31.6 µM"
>>> reportedresult("NC(=O)C1CCN(c2cc(Cl)cc3[nH]ncc23)CC1")
"< 3.16 µM"
>>> reportedresult("CNC(=O)c1ccc(N2CCN(c3cc(Cl)cc4[nH]ncc34)CC2)cc1")
"< 3.16 µM"
>>> reportedresult("CS(=O)(=O)N1CCC(c2cc(Cl)cc3[nH]ncc23)CC1")
"< 3.16 µM"
>>> reportedresult("CN1CCN(C2CCN(c3cc(Cl)cc4[nH]ncc34)CC2)C1=O")
"< 3.16 µM"
>>> reportedresult("CC(C)S(=O)(=O)N1CCC(c2cc(Cl)cc3[nH]ncc23)CC1")
"< 3.16 µM"
>>> reportedresult("O=C1NC2(CCN(c3cc(Br)cc4[nH]ncc34)CC2)C(=O)N1Cc1ccccc1")
"< 3.16 µM"
>>> reportedresult("CC1(C)CN(c2cc(Br)cc3[nH]ncc23)CCN1S(C)(=O)=O")
"< 3.16 µM"
>>> reportedresult("O=C1NC(=O)C(C2CCN(c3cc(Cl)cc4[nH]ncc34)CC2)N1 (stereo not shown)")
"< 3.16 µM"
>>> reportedresult("O=S(=O)(c1ccccc1)N1CCC(c2cc(Cl)cc3[nH]ncc23)CC1")
"< 3.16 µM"
>>> reportedresult("COC(=O)CN1CCN(c2cc(Cl)cc3[nH]ncc23)CC1(C)C")
"< 3.16 µM"
>>> reportedresult("OC1(c2ccccc2)CCN(c2cc(Cl)cc3[nH]ncc23)CC1")
"< 3.16 µM"
>>> reportedresult("O=c1[nH]c2ccccc2n1C1CCN(c2cc(Cl)cc3[nH]ncc23)CC1")
"< 3.16 µM"
>>> reportedresult("NC(=O)C1CCCN(c2cc(Cl)cc3[nH]ncc23)C1 (stereo not shown)")
"< 3.16 µM"
>>> reportedresult("CC(=O)N1CCCN(c2cccc3[nH]ncc23)CC1")
"3.24 to 31.6 µM"
>>> reportedresult("Cc1nc2c(n1C)CCN(c1cc(Cl)cc3[nH]ncc13)C2")
"< 3.16 µM"
>>> reportedresult("CS(=O)(=O)N1CCC(c2cc(-c3ccccc3)cc3[nH]ncc23)CC1")
"3.24 to 31.6 µM"
>>> reportedresult("CS(=O)(=O)N1CCN(c2cc(Cl)cc3[nH]ncc23)c2ccccc21")
"> 100 µM"
>>> reportedresult("CN1CC2CN(c3cccc4[nH]ncc34)CCN2C1=O (stereo not shown)")
"3.24 to 31.6 µM"
>>> reportedresult("CC(=O)N1[C@H](C)CN(c2cc(Cl)cc3[nH]ncc23)C[C@H]1C")
"< 3.16 µM"
>>> reportedresult("CC(C)c1cc(C2CCN(S(C)(=O)=O)CC2)c2cn[nH]c2c1")
"3.24 to 31.6 µM"
>>> reportedresult("CC(=O)Nc1cc(N2CCN(S(C)(=O)=O)C(C)(C)C2)c2cn[nH]c2c1")
"3.24 to 31.6 µM"
>>> reportedresult("CS(=O)(=O)N1CCC(F)(c2cc(Cl)cc3[nH]ncc23)CC1")
"< 3.16 µM"
>>> reportedresult("Cc1n[nH]c2cc(Cl)cc(N3CCN(S(C)(=O)=O)CC3)c12")
"3.24 to 31.6 µM"
>>> reportedresult("O=S(=O)(C1CC1)N1CCN(c2cccc3[nH]ncc23)CC1")
"3.24 to 31.6 µM"
>>> reportedresult("Clc1cc(N2CCc3cn[nH]c3C2)c2cn[nH]c2c1")
"< 3.16 µM"
>>> reportedresult("CS(=O)(=O)N1CCN(c2cc(OC(F)(F)F)cc3[nH]ncc23)CC1")
"3.24 to 31.6 µM"
>>> reportedresult("CN(C1CCN(c2cc(Cl)cc3[nH]ncc23)CC1(C)C)S(C)(=O)=O (stereo not shown)")
"< 3.16 µM"
>>> reportedresult("CN(C1CCCN(c2cc(Cl)cc3[nH]ncc23)C1)S(C)(=O)=O (stereo not shown)")
"3.24 to 31.6 µM"
>>> reportedresult("CS(=O)(=O)N1CCN(c2cc(Cl)cc3c(N)noc23)CC1")
"3.24 to 31.6 µM"
>>> reportedresult("CNC(=O)c1ccc(-c2cc(Cl)cc3[nH]ncc23)cc1")
"< 3.16 µM"
>>> reportedresult("CC(=O)N1CC2CC1CN2c1cc(Cl)cc2[nH]ncc12 (stereo not shown)")
"3.24 to 31.6 µM"
>>> reportedresult("COc1cc(-c2cc(Cl)cc3[nH]ncc23)ccc1S(C)(=O)=O")
"3.24 to 31.6 µM"
>>> reportedresult("CN(C)CCN1C(=O)NC2(CCN(c3cc(Cl)cc4[nH]ncc34)CC2)C1=O")
"< 3.16 µM"

---

testTarget: TDO (Homo sapiens)
assayProcedure: A172 kynurenine cell-based assay
Set-up: This assay utilised cancer cells which expressed either TDO or IDO; endogenous in cells; host or cells: A172 (human glioblastoma)
runParameters: A172 human glioblastoma cells, 48 hours, 500 μM L-tryptophan; read-out: A172 Kynurenine cell based assay pIC50 (converted)
We begin with a simple list: items and their reported IC50.
measureName: IC50

>>> reportedresult("CS(=O)(=O)NCCN1CCN(c2cc(Cl)cc3[nH]ncc23)CC1")
"< 3.16 µM"
>>> reportedresult("O=C1Nc2ccccc2C12CCN(c1cc(Cl)cc3[nH]ncc13)CC2")
"3.24 to 31.6 µM"
>>> reportedresult("CS(=O)(=O)c1ccc(-c2cc(Cl)cc3[nH]ncc23)cc1")
"< 3.16 µM"
>>> reportedresult("CS(=O)(=O)N1C2COCC1CN(c1cc(Cl)cc3[nH]ncc13)C2")
"< 3.16 µM"
>>> reportedresult("CNC(=O)NC1CCN(c2cc(Cl)cc3[nH]ncc23)CC1")
"< 3.16 µM"

---

testTarget: IDO (Homo sapiens, UniProt P14902)
Sequence (P14902 whole entry): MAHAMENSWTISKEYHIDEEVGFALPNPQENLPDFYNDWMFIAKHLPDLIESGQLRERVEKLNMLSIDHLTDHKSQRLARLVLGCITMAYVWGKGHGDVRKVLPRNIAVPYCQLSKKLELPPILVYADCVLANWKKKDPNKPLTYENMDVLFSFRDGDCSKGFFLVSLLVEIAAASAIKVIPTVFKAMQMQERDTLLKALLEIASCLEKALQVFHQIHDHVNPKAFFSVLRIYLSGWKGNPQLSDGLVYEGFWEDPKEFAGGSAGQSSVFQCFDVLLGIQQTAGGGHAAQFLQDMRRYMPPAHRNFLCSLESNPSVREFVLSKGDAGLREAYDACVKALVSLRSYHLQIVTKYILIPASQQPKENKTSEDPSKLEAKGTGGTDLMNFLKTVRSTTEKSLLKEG
assayProcedure: SKOV3 kynurenine cell-based assay (IDO induced by IFN-γ)
Set-up: IDO expression was induced in the SKOV3 cells by the addition of 500 ng/ml IFN-γ; endogenous in cells; host or cells: SKOV3 (human ovarian adenocarcinoma), induced with IFN-γ
runParameters: SKOV3 human ovarian adenocarcinoma cells, 500 ng/ml IFN-γ, 48 hours, 500 μM L-tryptophan; read-out: SKOV3 Kynurenine cell based assay pIC50 (converted)
Below, each entry is listed with its recorded IC50.
measureName: IC50

>>> reportedresult("C[C@@H]1CN(S(C)(=O)=O)CCN1c1cc(Cl)cc2[nH]ncc12")
"3.24 to 31.6 µM"
>>> reportedresult("NS(=O)(=O)c1ccc(-c2cc(Cl)cc3[nH]ncc23)cc1")
"3.24 to 31.6 µM"
>>> reportedresult("Cc1nc2c(n1C)CCN(c1cc(Cl)cc3[nH]ncc13)C2")
"32.4 to 100 µM"
>>> reportedresult("CC(=O)N1CCN(c2cccc3[nH]ncc23)CC1(C)C")
"3.24 to 31.6 µM"
>>> reportedresult("CC(=O)N(C)c1cc(N2CCN(S(C)(=O)=O)CC2)c2cn[nH]c2c1")
"32.4 to 100 µM"
>>> reportedresult("CC(=O)Nc1ccc(-c2cc(Cl)cc3[nH]ncc23)cc1")
"3.24 to 31.6 µM"
>>> reportedresult("CC(=O)N1CC2CCC1CN2c1cc(Cl)cc2[nH]ncc12 (stereo not shown)")
"3.24 to 31.6 µM"
>>> reportedresult("OC1CCCN(c2cc(Cl)cc3[nH]ncc23)C1 (stereo not shown)")
"32.4 to 100 µM"
>>> reportedresult("CCc1cc(C2CCN(S(C)(=O)=O)CC2)c2cn[nH]c2c1")
"3.24 to 31.6 µM"
>>> reportedresult("CC(C)(O)c1cc(Cl)cc2[nH]ncc12")
"32.4 to 100 µM"

---

testTarget: TDO (Homo sapiens, UniProt P48775)
Sequence (P48775 whole entry): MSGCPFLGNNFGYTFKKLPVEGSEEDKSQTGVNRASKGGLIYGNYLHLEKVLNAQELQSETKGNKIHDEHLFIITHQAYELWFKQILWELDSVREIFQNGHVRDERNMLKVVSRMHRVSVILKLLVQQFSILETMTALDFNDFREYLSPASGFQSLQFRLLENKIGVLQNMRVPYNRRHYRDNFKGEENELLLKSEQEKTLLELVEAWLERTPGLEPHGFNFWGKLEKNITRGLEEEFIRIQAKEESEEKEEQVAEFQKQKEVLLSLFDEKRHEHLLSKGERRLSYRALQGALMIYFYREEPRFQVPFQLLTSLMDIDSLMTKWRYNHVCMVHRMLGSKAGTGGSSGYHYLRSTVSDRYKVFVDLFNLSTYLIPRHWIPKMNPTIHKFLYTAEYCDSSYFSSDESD
assayProcedure: A172 kynurenine cell-based assay
Set-up: This assay utilised cancer cells which expressed either TDO or IDO; endogenous in cells; host or cells: A172 (human glioblastoma)
runParameters: A172 human glioblastoma cells, 48 hours, 500 μM L-tryptophan; read-out: A172 Kynurenine cell based assay pIC50 (converted)
measureName: IC50

>>> reportedresult("CC(=O)N1CCN(c2cc(Cl)cc3c(N)n[nH]c23)CC1 [Compound 322]")
"3.24 to 31.6 µM"
>>> reportedresult("CC(=O)N(C)c1cc(N2CCN(S(C)(=O)=O)C(C)(C)C2)c2cn[nH]c2c1 [Compound 311]")
"3.24 to 31.6 µM"
>>> reportedresult("O=C1NCNC12CCN(c1cc(Cl)cc3[nH]ncc13)CC2 [Compound 397]")
"< 3.16 µM"
>>> reportedresult("Clc1cc(N2CCC(c3nccs3)CC2)c2cn[nH]c2c1 [Compound 313]")
"< 3.16 µM"
>>> reportedresult("CS(=O)(=O)N1CC2(CCN(c3cc(Cl)cc4[nH]ncc34)CC2)C1 [Compound 351]")
"< 3.16 µM"
>>> reportedresult("CNC(=O)CN1CCN(c2cc(Cl)cc3[nH]ncc23)CC1 [Compound 59]")
"< 3.16 µM"
>>> reportedresult("CN1C(=O)NC(=O)C12CCN(c1cc(Cl)cc3[nH]ncc13)CC2 [Compound 184]")
"< 3.16 µM"
>>> reportedresult("CS(=O)(=O)N1CCN(c2cc(Cl)cc3[nH]ncc23)CC1 [Compound 28]")
"< 3.16 µM"
>>> reportedresult("CC1(C)CC(c2cc(Cl)cc3[nH]ncc23)CCN1S(C)(=O)=O (centres unmarked) [Compound 175]")
"< 3.16 µM"
>>> reportedresult("CNC(=O)C1CCN(c2cc(Cl)cc3[nH]ncc23)CC1 [Compound 249]")
"< 3.16 µM"
>>> reportedresult("CNC(=O)CC1CCN(c2cc(Cl)cc3[nH]ncc23)CC1 [Compound 364]")
"< 3.16 µM"
>>> reportedresult("O=C(C1CC1)N1CCN(c2cc(Cl)cc3[nH]ncc23)CC1 [Compound 107]")
"< 3.16 µM"
>>> reportedresult("CCc1cc(N2CCN(S(C)(=O)=O)CC2)c2cn[nH]c2c1 [Compound 158]")
"3.24 to 31.6 µM"
>>> reportedresult("OC(c1cc(Cl)cc2[nH]ncc12)C1CCOCC1 (centres unmarked) [Compound 299]")
"< 3.16 µM"
>>> reportedresult("Clc1cc(N2CCC(c3ccccc3)CC2)c2cn[nH]c2c1 [Compound 183]")
"< 3.16 µM"
>>> reportedresult("O=C1NC2(CCN(c3cc(Cl)cc4[nH]ncc34)CC2)C(=O)N1Cc1ncco1 [Compound 407]")
"< 3.16 µM"
>>> reportedresult("OC(c1ccccc1)c1cc(Cl)cc2[nH]ncc12 (centres unmarked) [Compound 271]")
"< 3.16 µM"
>>> reportedresult("CS(=O)(=O)NCC1CCN(c2cc(Cl)cc3[nH]ncc23)CC1 [Compound 98]")
"< 3.16 µM"
>>> reportedresult("CC(=O)N1CCN(c2cc(C(F)(F)F)cc3[nH]ncc23)CC1 [Compound 48]")
"< 3.16 µM"
>>> reportedresult("O=C(C1CC1)N1CCC(c2cc(Cl)cc3[nH]ncc23)CC1 [Compound 165]")
"< 3.16 µM"
>>> reportedresult("OC(Cc1ccccc1)c1cc(Cl)cc2[nH]ncc12 (centres unmarked) [Compound 281]")
"< 3.16 µM"
>>> reportedresult("CC1(C)CN(c2cc(C3CC3)cc3[nH]ncc23)CCN1S(C)(=O)=O [Compound 127]")
"< 3.16 µM"
>>> reportedresult("CC(=O)N1CCN(c2cccc3[nH]ncc23)CC1(C)C [Compound 25]")
"< 3.16 µM"
>>> reportedresult("O=C(N1CCC(c2cc(Cl)cc3[nH]ncc23)CC1)C1(O)CC1 [Compound 195]")
"< 3.16 µM"
>>> reportedresult("O=C(N1CCN(c2cc(Cl)cc3[nH]ncc23)CC1)C1(O)CC1 [Compound 116]")
"< 3.16 µM"
>>> reportedresult("CC(C)C(O)c1cc(Cl)cc2[nH]ncc12 (centres unmarked) [Compound 260]")
"< 3.16 µM"
>>> reportedresult("Cc1nc2c([nH]1)CN(c1cc(C(F)(F)F)cc3[nH]ncc13)CC2 [Compound 212]")
"< 3.16 µM"
>>> reportedresult("NS(=O)(=O)c1ccc(-c2cc(Cl)cc3[nH]ncc23)cc1 [Compound 269]")
"< 3.16 µM"
>>> reportedresult("CC1(C)CN(c2cc(C3CCCC3)cc3[nH]ncc23)CCN1S(C)(=O)=O [Compound 148]")
"3.24 to 31.6 µM"
>>> reportedresult("CC(=O)N1CC2CCC1CN2c1cc(Cl)cc2[nH]ncc12 (centres unmarked) [Compound 233]")
"< 3.16 µM"
>>> reportedresult("COC(C)c1cc(Cl)cc2[nH]ncc12 (centres unmarked) [Compound 287]")
"3.24 to 31.6 µM"
>>> reportedresult("Cc1nc2c(o1)CN(c1cc(C(F)(F)F)cc3[nH]ncc13)CC2(C)C [Compound 434]")
"< 3.16 µM"
>>> reportedresult("O=C(O)c1ccc(-c2cc(Cl)cc3[nH]ncc23)cc1 [Compound 253]")
"< 3.16 µM"
>>> reportedresult("CC1(C)CN(c2cc(Cl)cc3c(N)n[nH]c23)CCN1S(C)(=O)=O [Compound 321]")
"3.24 to 31.6 µM"
>>> reportedresult("O=S(=O)(Cc1ccccc1)N1CCN(c2cc(Cl)cc3[nH]ncc23)CC1 [Compound 56]")
"< 3.16 µM"
>>> reportedresult("CS(=O)(=O)N1CCN(c2ccc3[nH]ncc3c2)CC1 [Compound 43]")
"3.24 to 31.6 µM"
>>> reportedresult("CS(=O)(=O)N1CCC(n2cc(-c3cc(Cl)cc4[nH]ncc34)cn2)CC1 [Compound 347]")
"< 3.16 µM"
>>> reportedresult("CS(=O)(=O)N1CCN(c2cc(C3CCCC3)cc3[nH]ncc23)CC1 [Compound 131]")
"> 100 µM"
